For each of the compounds below, state its TGI.
tested on: MOLT-4 leukemia; experiment: NCI tumour cell line growth inhibition, 48 h
Where a SMILES comes first, the peptide text is derived from it. Bridges are numbered along the chain shown (N, C = ends). Roman numbers before positions name the chains, in order. [ ]: non-standard residue; d: D form. The star is where a group is joined. Quinoxaline2carbonyl = O=C(c1cnc2ccccc2n1)*; NMeV = CN[CH](C(=O)O)C(C)C; NMeC = CN[CH](CS)C(=O)O

Annotate the compound CC1NC(=O)C(NC(=O)c2cnc3ccccc3n2)COC(=O)C(C(C)C)N(C)C(=O)C2CSSCC(C(=O)N(C)C(C(C)C)C(=O)OCC(NC(=O)c3cnc4ccccc4n3)C(=O)NC(C)C(=O)N2C)N(C)C1=O (stereo unspecified) (I: Quinoxaline2carbonyl-SA[NMeC][NMeV] / II: Quinoxaline2carbonyl-SA[NMeC][NMeV]; ester I:1-II:C, I:C-II:1; disulfide I:3-II:3; configuration not given here) with its measured TGI.
> 4.64 µM

# return recorded TGI for input "CNS(=O)(=O)NNS(=O)(=O)c1ccc(Cl)cc1"
> 100 µM

Please indicate TGI recorded for "COc1ccc(N=C2C(=Nc3ccc(OC)cc3)N(c3ccccc3)C(=S)N2N=C=C2Sc3ccccc3N2C)cc1"
> 100 µM

Return reported TGI. Input compound: c1ccc2c3c([nH]c2c1)C1CCCN1CC3 (stereo unspecified)
> 10 µM

Let me know recorded TGI for "CN(C)c1ccc(/C=C2\C=Cc3ccccc32)cc1" , thanks.
> 100 µM

Specify measured TGI for "CCN(c1cccc(NC(=S)Nc2ccccc2N(CC)c2cc(-c3ccccc3)no2)c1)c1cc(-c2ccccc2)no1" .
> 100 µM

Recall and state the measured TGI for COc1cc(C(c2ccc3c(c2)OCO3)N2C(=O)CCC2C(=O)O)cc(OC)c1OC (stereo unspecified) .
> 100 µM

Note TGI for the compound shown: "CC(C)CN=C(N)N=C(N)N"
> 100 µM

Give the reported TGI for this compound. "Cc1ccc(/C(O)=C/C(=O)C(=O)NN=C(c2ccccc2)c2ccccc2)cc1"
> 100 µM

Find the measured TGI of "Cc1cc(N(CCC#N)CCC#N)ccc1/C=C1/N=C(c2ccccc2)N(N)C1=O" and report it.
> 100 µM

State its TGI for this compound: CCC1(O)C(=O)OCc2c1cc1n(c2=O)Cc2cc3cc(N)ccc3nc2-1 (stereo unspecified)
< 0.01 µM

Supply recorded TGI for "COC(=O)C(C)(C)N=CN(C)C" here.
> 100 µM

For the compound OC(c1cc2cc(Cl)c(Cl)cc2c2cc(C(F)(F)F)ccc12)C1CCCCN1 (stereo unspecified) , give its reported TGI.
3.32 µM

Give TGI for the following compound: "O=C(Nc1cccc(F)c1)c1cc2ccc(O)cc2oc1=Nc1ccccc1F"
24.7 µM

Provide one value: measured TGI of C[C@H]1C=C2[C@@H]3CC(C)(C(=O)O)CC[C@]3(C)CC[C@]2(C)[C@]2(C)CC[C@H]3C(C)(C)[C@@H](OC(=O)c4cccc5c(=O)c6ccccc6[nH]c45)CC[C@]3(C)[C@@H]12 (stereo partly specified)
> 100 µM

Please report the measured TGI for COC(=O)C1=C(OC(=O)c2ccccc2)C(C(=O)OC)[C@]2(O)[C@@H](C(=O)OC)[C@H]1C[C@@H](c1ccccc1)[C@@H]2C(=O)OC (stereo partly specified)
23 µM

Supply measured TGI of CN(C)CC1CCCC1=O (stereo unspecified) in your reply.
0.875 µM

Supply TGI value. Item: "CCNC1=C(NC(=O)CC)C(=O)c2ccccc2C1=O"
> 100 µM

Return reported TGI. Input compound: "Cc1ccc(S(=O)(=O)NCCSCCSCCNS(=O)(=O)c2ccc(C)cc2)cc1"
> 100 µM

Check the records and state TGI for "Cn1cc(-c2nonc2-c2cn(C)c3ccccc23)c2ccccc21"
> 100 µM

Return TGI for the following compound: COc1cc2c(c(OC)c1OC)-c1ccc(SC)c(=O)cc1[C@@H](NC1OC(CO)C(O)C(O)C1O)CC2 (stereo partly specified)
> 100 µM

In one line, give reported TGI of the entry "N#Cc1c(N)[nH]c2ccc(Sc3ccccc3)cc12" .
11.2 µM

Give TGI for "CC1(C)CCC[C@]2(C)[C@@H](C=O)C(C=O)=CC[C@@H]12"
30.5 µM

Answer with reported TGI of CC(=O)OCC1OC(n2c(=O)[nH]c(=O)c3sccc32)C(Br)C1OC(C)=O (stereo unspecified)
> 100 µM

Provide only the value of recorded TGI for "COc1cc2nc(NCCCCCNC(=O)c3ccco3)nc(N)c2cc1OC"
67.8 µM

State its TGI: "Cc1ccc2nc(NC(=O)/C(Cc3nc4ccc(Cl)cc4[nH]c3=O)=N\NC(C)(C)C)sc2c1"
> 100 µM

Indicate the recorded TGI value for this compound: "O=C1NC(=O)C(c2cccc(Cl)c2)=C1Nc1ccc(O)c(Cl)c1"
> 25 µM

Please indicate TGI recorded for "CCCCCCN(N)C(=O)CC#N"
> 100 µM

Note down TGI recorded for "Cc1n[nH]c(=O)n1/N=C/c1ccc([N+](=O)[O-])o1"
> 100 µM

Answer with the recorded TGI for the compound listed here: "COc1ccc(-c2cc(=O)c3c(OC)c(OC)c(OC)c(OC)c3o2)cc1"
> 100 µM

Return the recorded TGI value; entry: COc1cc(C2C3=C(COC3=O)Oc3cc4c(cc32)OCO4)cc(OC)c1OC(C)=O (stereo unspecified)
> 100 µM
